assay summary: S16 Schwann cell viability assay (CellTiter-Glo assay) (AID 624031);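 also: native untransfected S16 rat Schwann cells; cellular ATP luminescence as a viability measure; nearly all actives have a fitted effect of over 70% in size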
stated conditions: S16 rat Schwann cells viability, 24 h; series mostly up to 57.5 µM
Inconclusive results are not listed. The source made the active and inactive calls. Calls follow the shape of the dose curve; as a rule, active = well fitted cell-killing curve with a large enough effect; inconclusive = small, poorly fitted or top-dose-only effect, or effect the other way; inactive = flat fitted curve, though single readings scatter.
recorded endpoint: outcome

Examples with answers:
compound	outcome
CCCCC/C(C=O)=C/c1ccccc1	inactive
CO/N=C(/C(=O)N[C@@H]1C(=O)N2C(C(=O)O)=C(CSC(=O)c3ccco3)CSC12)c1csc(N)n1 (stereo partly drawn)	inactive
CO/N=C(/C(=O)N[C@@H]1C(=O)N2C(C(=O)O)=C(CSc3nnnn3C)CS[C@H]12)c1csc(N)n1	inactive
NC(=O)NC(CCC(=O)O)C(=O)O (stereo not drawn)	inactive
COc1cccc2c1C(=O)c1c(O)c3c(c(O)c1C2=O)C[C@@](O)(C(=O)CO)C[C@@H]3OC1CC(N)C(O)C(C)O1 (stereo partly drawn)	inactive

Provide one value: measured outcome of O=C(O)CC(O)CC(O)/C=C/c1c(C2CC2)nc2ccccc2c1-c1ccc(F)cc1 (stereo not drawn) inactive

Provide one value: measured outcome of Cc1cnc(NC(=O)C2C(=O)c3ccccc3S(=O)(=O)N2C)s1 (stereo not drawn) inactive

Provide one value: measured outcome of "O=C(O)c1ccc(N[C@@H]2OC[C@@H](O)[C@@H](O)[C@@H]2O)cc1" inactive

Provide one value: measured outcome of CC[C@H]1OC(=O)[C@H](C)C(=O)[C@H](C)[C@@H](OC2O[C@H](C)C[C@H](N(C)C)[C@@H]2O)[C@@](C)(OC)C[C@@H](C)C(=O)[C@@H](C)C2N(CCCCn3cnc(-c4cccnc4)c3)C(=O)O[C@@]21C (stereo partly drawn) inactive

Provide one value: measured outcome of "C[S+](C)CC[C@H](N)C(=O)O" inactive

Provide one value: measured outcome of "Clc1ccc(CS[C@@H](Cn2ccnc2)c2ccc(Cl)cc2Cl)cc1" inactive

Provide one value: measured outcome of "O=C(O)c1ccccc1-c1c2ccc(=O)cc-2oc2cc(O)ccc12" inactive

Provide one value: measured outcome of CN1[C@H]2CC(OC(=O)[C@H](CO)c3ccccc3)C[C@H]1[C@H]1O[C@H]12 (stereo partly drawn) inactive

Provide one value: measured outcome of "CC1=C[C@@H](O)CC(C)(C)[C@@H]1/C=C/C(C)=C/C=C/C(C)=C/C=C/C=C(C)/C=C/C=C(C)/C=C/C1=C(C)C[C@H](O)CC1(C)C" inactive

Provide one value: measured outcome of "CC1=C(c2ccc(NN=C(C#N)C#N)cc2)NNC(=O)C1" inactive

Provide one value: measured outcome of NC[C@@H]1O[C@H](OC2[C@@H](CO)O[C@@H](OC3[C@H](O)[C@H](N)C[C@H](N)[C@H]3OC3O[C@H](CO)[C@@H](O)[C@H](O)[C@@H]3N)[C@H]2O)C(N)[C@H](O)[C@@H]1O (stereo partly drawn) inactive

Provide one value: measured outcome of "O=C(O)C[CH2][Ge](=[O])[O][Ge](=[O])[CH2]CC(=O)O" inactive

Provide one value: measured outcome of CCC(C)C(N)C(=O)O (stereo not drawn) inactive

Hello, the source for this data is PubChem BioAssay (NCATS), in case you need it.
